method notes: Pharmacokinetics of saponins in rat plasma after oral gavage of raw
Assay type: in vivo, Sprague–Dawley rats
test context: male, Sprague-Dawley, rat, plasma, po, 1 g/kg, AUC0–∞, male SD rats, oral gavage of raw P. notoginseng aqueous extract 1 g/kg, n = 6, mean ± SD
The reader will find reported AUC(0-inf) values listed item by item below.
Value expressed in ng·h/mL; do not type the unit.

# compound, units symbol, AUC(0-inf)
records = [
    ("CC(C)=CCC[C@](C)(O[C@@H]1O[C@H](CO)[C@@H](O)[C@H](O)[C@H]1O)[C@H]1CC[C@]2(C)[C@@H]1[C@H](O)C[C@@H]1[C@@]3(C)CC[C@H](O)C(C)(C)[C@@H]3[C@@H](O[C@@H]3O[C@H](CO)[C@@H](O)[C@H](O)[C@H]3O[C@@H]3O[C@@H](C)[C@H](O)[C@@H](O)[C@H]3O)C[C@]12C [Re, ginsenoside Re]", "ng·h/mL", 91.7),
]

Query: Field request: AUC(0-inf) | item: CC(C)=CCC[C@](C)(O[C@@H]1O[C@H](CO[C@@H]2O[C@H](CO)[C@@H](O)[C@H](O)[C@H]2O)[C@@H](O)[C@H](O)[C@H]1O)[C@H]1CC[C@]2(C)[C@@H]1[C@H](O)C[C@@H]1[C@@]3(C)CC[C@H](O[C@@H]4O[C@H](CO)[C@@H](O)[C@H](O)[C@H]4O[C@@H]4O[C@H](CO)[C@@H](O)[C@H](O)[C@H]4O)C(C)(C)[C@@H]3CC[C@]12C [Rb1, ginsenoside Rb1]
Reply: 15200

Query: Any idea what its AUC(0-inf) is? The compound is CC(C)=CCC[C@](C)(O[C@@H]1O[C@H](CO)[C@@H](O)[C@H](O)[C@H]1O)[C@H]1CC[C@]2(C)[C@@H]1[C@H](O)C[C@@H]1[C@@]3(C)CC[C@H](O)C(C)(C)[C@@H]3[C@@H](O[C@@H]3O[C@H](CO)[C@@H](O)[C@H](O)[C@H]3O)C[C@]12C [Rg1, ginsenoside Rg1]
Reply: 861

Query: Entry CC(C)=CCC[C@](C)(O[C@@H]1O[C@H](CO)[C@@H](O)[C@H](O)[C@H]1O)[C@H]1CC[C@]2(C)[C@@H]1[C@H](O)C[C@@H]1[C@@]3(C)CC[C@H](O[C@@H]4O[C@H](CO)[C@@H](O)[C@H](O)[C@H]4O[C@@H]4O[C@H](CO)[C@@H](O)[C@H](O)[C@H]4O)C(C)(C)[C@@H]3CC[C@]12C [Rd, ginsenoside Rd] : reported AUC(0-inf) = ?
Reply: 4170

---

method notes: Pharmacokinetics of saponins in rat plasma after oral gavage of raw
Assay type: in vivo, Sprague–Dawley rats
test context: male, Sprague-Dawley, rat, plasma, po, 1 g/kg, Cmax, male SD rats, oral gavage of raw P. notoginseng aqueous extract 1 g/kg, n = 6, mean ± SD
parameter: Cmax (ng/mL)
The reply should be a number in ng/mL, with the unit left off.

# molecule, Cmax, ng/mL
records = [
    ("CC(C)=CCC[C@](C)(O[C@@H]1O[C@H](CO)[C@@H](O)[C@H](O)[C@H]1O)[C@H]1CC[C@]2(C)[C@@H]1[C@H](O)C[C@@H]1[C@@]3(C)CC[C@H](O)C(C)(C)[C@@H]3[C@@H](O[C@@H]3O[C@H](CO)[C@@H](O)[C@H](O)[C@H]3O[C@@H]3O[C@@H](C)[C@H](O)[C@@H](O)[C@H]3O)C[C@]12C [Re, ginsenoside Re]", 28.1),
    ("CC(C)=CCC[C@](C)(O[C@@H]1O[C@H](CO)[C@@H](O)[C@H](O)[C@H]1O)[C@H]1CC[C@]2(C)[C@@H]1[C@H](O)C[C@@H]1[C@@]3(C)CC[C@H](O[C@@H]4O[C@H](CO)[C@@H](O)[C@H](O)[C@H]4O[C@@H]4O[C@H](CO)[C@@H](O)[C@H](O)[C@H]4O)C(C)(C)[C@@H]3CC[C@]12C [Rd, ginsenoside Rd]", 164),
    ("CC(C)=CCC[C@](C)(O[C@@H]1O[C@H](CO)[C@@H](O)[C@H](O)[C@H]1O)[C@H]1CC[C@]2(C)[C@@H]1[C@H](O)C[C@@H]1[C@@]3(C)CC[C@H](O)C(C)(C)[C@@H]3[C@@H](O[C@@H]3O[C@H](CO)[C@@H](O)[C@H](O)[C@H]3O)C[C@]12C [Rg1, ginsenoside Rg1]", 66.7),
]

Query: Quick check: Cmax of CC(C)=CCC[C@](C)(O[C@@H]1O[C@H](CO[C@@H]2O[C@H](CO)[C@@H](O)[C@H](O)[C@H]2O)[C@@H](O)[C@H](O)[C@H]1O)[C@H]1CC[C@]2(C)[C@@H]1[C@H](O)C[C@@H]1[C@@]3(C)CC[C@H](O[C@@H]4O[C@H](CO)[C@@H](O)[C@H](O)[C@H]4O[C@@H]4O[C@H](CO)[C@@H](O)[C@H](O)[C@H]4O)C(C)(C)[C@@H]3CC[C@]12C [Rb1, ginsenoside Rb1] ?
Reply: 997
